target: 5-HT2 receptors (Rattus norvegicus, UniProt P14842)
Sequence (P14842 whole entry): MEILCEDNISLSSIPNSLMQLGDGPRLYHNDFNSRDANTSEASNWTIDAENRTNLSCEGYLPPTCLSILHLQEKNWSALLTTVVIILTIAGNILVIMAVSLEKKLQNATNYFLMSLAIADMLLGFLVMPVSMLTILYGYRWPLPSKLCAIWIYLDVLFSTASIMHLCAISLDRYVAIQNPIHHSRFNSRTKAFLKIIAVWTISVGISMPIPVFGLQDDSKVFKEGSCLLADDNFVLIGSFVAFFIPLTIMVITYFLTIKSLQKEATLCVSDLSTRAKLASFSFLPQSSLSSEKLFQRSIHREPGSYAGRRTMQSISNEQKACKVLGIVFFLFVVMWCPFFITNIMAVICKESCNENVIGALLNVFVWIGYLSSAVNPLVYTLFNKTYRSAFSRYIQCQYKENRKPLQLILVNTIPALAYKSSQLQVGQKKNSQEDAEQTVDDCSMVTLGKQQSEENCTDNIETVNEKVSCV
Counter-ions that a name gives are not always drawn.
In this section, each of the compounds is paired with its reported Ki.
Note to self: number, then unit, no commentary.

[
  {
    "compound": "NC(=O)c1cccnc1N1CCN(CCCSc2ccc(F)cc2)CC1 [2:19, dihydrochloride]",
    "Ki": "7 nM"
  }
]

Item Fc1ccc(CCCCN2CCN(c3cccc(Cl)n3)CC2)cc1 [2:9, hydrochloride] has what recorded Ki?
7 nM

Item `COc1cccc(N2CCN(CCCOc3ccc(F)cc3)CC2)n1` has what recorded Ki?
11 nM

Source of measurements: patent US5034390A
